# Tested on: T1, full-length human SIRPβ1 (NP_006056.2) on cells (human, UniProt O00241 30-398)
# T1 construct: also called β1 WT
# T1 sequence (O00241 30-398): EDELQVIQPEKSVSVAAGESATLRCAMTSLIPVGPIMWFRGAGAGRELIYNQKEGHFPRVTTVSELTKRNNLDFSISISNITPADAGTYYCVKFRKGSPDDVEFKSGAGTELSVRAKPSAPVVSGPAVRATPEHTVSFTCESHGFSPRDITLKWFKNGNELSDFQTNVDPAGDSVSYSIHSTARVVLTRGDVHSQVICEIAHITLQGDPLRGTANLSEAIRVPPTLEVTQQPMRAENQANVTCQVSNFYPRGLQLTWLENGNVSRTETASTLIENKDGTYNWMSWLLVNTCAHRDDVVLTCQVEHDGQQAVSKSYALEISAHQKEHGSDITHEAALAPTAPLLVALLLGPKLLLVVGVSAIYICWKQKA
# Procedure text: flow cytometry, Expi-CHO cells
# Procedure: These cells are blocked with donkey IgG and incubated on ice with increasing concentrations of antibodies for 60 minutes, washed and stained with AF647-conjugated donkey F(ab′)₂ anti-human IgG antibodies. Stained cells are washed, fixed, and analyzed by flow cytometry. Median fluorescent intensity is determined and used as a measure of antibody binding.
Experimental endpoint: EC50 (nM)
Numbers only, in nM.

Anti-SIRPα antibody KWAR23 (antibody, V domains shown) VH: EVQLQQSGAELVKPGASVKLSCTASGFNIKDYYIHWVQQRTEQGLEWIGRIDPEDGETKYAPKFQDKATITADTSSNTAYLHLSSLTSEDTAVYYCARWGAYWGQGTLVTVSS VL: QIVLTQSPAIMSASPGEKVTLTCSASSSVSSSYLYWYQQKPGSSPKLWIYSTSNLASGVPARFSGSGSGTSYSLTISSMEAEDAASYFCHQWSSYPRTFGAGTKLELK = 0.2
Antibody A4 (antibody, human IgG1, kappa, L234A L235A, V domains shown) VH: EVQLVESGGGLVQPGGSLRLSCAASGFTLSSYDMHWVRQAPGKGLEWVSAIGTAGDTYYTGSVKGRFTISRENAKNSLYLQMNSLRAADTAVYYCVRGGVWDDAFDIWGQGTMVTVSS VL: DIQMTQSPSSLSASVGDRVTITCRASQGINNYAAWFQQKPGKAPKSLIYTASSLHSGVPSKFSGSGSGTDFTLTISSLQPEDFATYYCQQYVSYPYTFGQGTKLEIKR = 1.5
Antibody C (antibody, human IgG1, kappa, L234A L235A, V domains shown) VH: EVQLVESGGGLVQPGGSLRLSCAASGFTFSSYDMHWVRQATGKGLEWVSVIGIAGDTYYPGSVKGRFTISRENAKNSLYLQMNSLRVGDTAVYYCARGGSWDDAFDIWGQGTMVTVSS VL: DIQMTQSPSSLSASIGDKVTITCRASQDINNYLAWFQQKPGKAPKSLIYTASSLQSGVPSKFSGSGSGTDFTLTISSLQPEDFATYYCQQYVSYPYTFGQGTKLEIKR = 0.2

Now for a further binder.
# EC50 (binder: Antibody D (antibody, human IgG1, kappa, L234A L235A, V domains shown) VH: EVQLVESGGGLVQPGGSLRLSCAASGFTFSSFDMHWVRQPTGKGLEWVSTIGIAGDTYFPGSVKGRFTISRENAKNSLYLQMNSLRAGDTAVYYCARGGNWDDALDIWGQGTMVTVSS VL: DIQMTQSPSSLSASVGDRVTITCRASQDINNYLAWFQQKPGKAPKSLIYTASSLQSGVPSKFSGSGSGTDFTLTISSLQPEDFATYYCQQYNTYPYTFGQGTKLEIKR ) is 0.2
